Target: human SMO W535L (Homo sapiens, UniProt Q99835, W535L)
Construct: expressed in transfected cells; host or cells: SMO knock-out mouse embryonic fibroblasts (MEF SMO-/-), BacMam transduction
Sequence (Q99835 28-787 W535L): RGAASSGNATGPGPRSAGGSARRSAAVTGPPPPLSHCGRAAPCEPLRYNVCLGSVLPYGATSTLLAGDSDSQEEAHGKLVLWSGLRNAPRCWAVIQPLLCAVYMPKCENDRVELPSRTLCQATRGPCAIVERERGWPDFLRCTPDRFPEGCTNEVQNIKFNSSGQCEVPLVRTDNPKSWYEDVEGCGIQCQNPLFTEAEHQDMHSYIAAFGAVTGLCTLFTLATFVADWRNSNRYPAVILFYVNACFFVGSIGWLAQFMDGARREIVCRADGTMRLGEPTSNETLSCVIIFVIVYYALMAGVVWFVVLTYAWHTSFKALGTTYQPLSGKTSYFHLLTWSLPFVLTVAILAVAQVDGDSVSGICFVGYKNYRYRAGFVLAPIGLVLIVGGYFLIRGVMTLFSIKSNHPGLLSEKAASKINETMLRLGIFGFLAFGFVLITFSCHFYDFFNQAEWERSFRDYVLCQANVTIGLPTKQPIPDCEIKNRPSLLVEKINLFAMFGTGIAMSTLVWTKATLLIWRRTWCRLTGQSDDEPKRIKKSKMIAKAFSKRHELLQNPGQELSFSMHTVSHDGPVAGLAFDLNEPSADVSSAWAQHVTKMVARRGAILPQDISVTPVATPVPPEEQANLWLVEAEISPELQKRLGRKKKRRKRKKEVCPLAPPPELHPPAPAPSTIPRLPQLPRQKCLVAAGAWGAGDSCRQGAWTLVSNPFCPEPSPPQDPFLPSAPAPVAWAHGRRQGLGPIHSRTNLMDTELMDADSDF
Experiment: Human assay: Gli1 qPCR in MEF SMO-/- cells BacMam-transduced with hSMO W535L variant
Format: cell-based
Details: mSHh-treated, 24 hours, Gli1 inhibition by qPCR, read-out: Human W535L pIC50 (converted)
MEASURE_NAME: log10(IC50) (log10 of the value in nM)

compound="O=C(Nc1ccc(-c2cc(C3CC3)n[nH]2)cc1)c1cccc(CN2CCS(=O)(=O)CC2)c1 [Example 4-19]" measure_name=log10(IC50) experimental_result=1.10
compound="O=C(Nc1ccc(-c2nc(C3CC3)n[nH]2)cc1)c1cc(Cl)cc(CN2CCS(=O)(=O)CC2)c1 [Example 2-4]" measure_name=log10(IC50) experimental_result=0.70
compound="O=C(Nc1ccc(-c2nc(Cc3ccc(Br)cc3)n[nH]2)cc1)c1cccc(CN2CCS(=O)(=O)CC2)c1 [Example 3-24]" measure_name=log10(IC50) experimental_result=1.40
compound="CC1CN(Cc2cccc(C(=O)Nc3ccc(-c4nc(C5CC5)n[nH]4)cc3)c2)CCS1(=O)=O (stereo not drawn) [Example 1-2]" measure_name=log10(IC50) experimental_result=1.30
compound="CC(C)c1noc(-c2ccc(NC(=O)c3cccc(CN4CCS(=O)(=O)CC4)c3)cc2)n1 [Example 4-10]" measure_name=log10(IC50) experimental_result=1.10
compound="Cc1oc(-c2ccc(NC(=O)c3ccc(F)c(CN4CCS(=O)(=O)CC4)c3)cc2)nc1C1CC1 [Example 4-3]" measure_name=log10(IC50) experimental_result=1.10
compound="O=C(Nc1ccc(-c2nc(C3CC3)n[nH]2)cc1)c1cccc(CN2CCS(=O)(=O)CC2)c1 [Example 3-3]" measure_name=log10(IC50) experimental_result=2.00
compound="O=C(Nc1ccc(-c2noc(Cc3ccc(F)cc3)n2)cc1)c1cccc(CN2CCS(=O)(=O)CC2)c1 [Example 4-17]" measure_name=log10(IC50) experimental_result=1.30
compound="Cc1c(-c2ccc(NC(=O)c3ccc(Cl)c(CN4CCS(=O)(=O)CC4)c3)cc2)n[nH]c1C1CC1 [Example 4-22]" measure_name=log10(IC50) experimental_result=1.20

====

Biological target: mouse SMO^D473H (Mus musculus, UniProt P56726, D477H)
Construct: expressed in transfected cells
Sequence (P56726 33-793 D477H): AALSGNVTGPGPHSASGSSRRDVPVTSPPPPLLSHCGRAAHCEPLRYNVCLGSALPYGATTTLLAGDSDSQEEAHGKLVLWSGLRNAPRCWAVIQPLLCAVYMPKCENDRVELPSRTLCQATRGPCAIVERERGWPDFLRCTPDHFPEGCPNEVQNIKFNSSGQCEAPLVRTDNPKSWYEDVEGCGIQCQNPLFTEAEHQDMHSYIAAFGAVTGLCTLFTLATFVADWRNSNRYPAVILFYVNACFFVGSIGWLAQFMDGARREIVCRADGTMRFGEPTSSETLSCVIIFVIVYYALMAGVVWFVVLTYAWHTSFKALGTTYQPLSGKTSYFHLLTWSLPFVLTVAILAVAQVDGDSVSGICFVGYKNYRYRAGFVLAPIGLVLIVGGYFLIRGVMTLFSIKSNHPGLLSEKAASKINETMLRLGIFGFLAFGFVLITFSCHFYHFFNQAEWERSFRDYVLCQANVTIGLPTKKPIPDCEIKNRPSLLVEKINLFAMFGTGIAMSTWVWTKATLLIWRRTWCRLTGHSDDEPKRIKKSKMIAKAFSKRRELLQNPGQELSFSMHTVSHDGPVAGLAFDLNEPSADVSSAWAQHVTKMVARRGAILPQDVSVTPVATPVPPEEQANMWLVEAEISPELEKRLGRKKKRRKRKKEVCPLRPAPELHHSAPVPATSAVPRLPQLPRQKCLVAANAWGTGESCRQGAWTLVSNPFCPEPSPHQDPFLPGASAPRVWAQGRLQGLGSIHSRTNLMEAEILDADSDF
Experiment: Mouse assay: Gli1 qPCR in MEF cells stably expressing mouse SMO D473H; note: test concentration or dose not given here
Type: cell-based
Conditions: mSHh-treated, 24 hours, percentage Gli1 inhibition
Description: Cell culture. All materials were purchased from Sigma-Aldrich, unless otherwise stated. Compound treatment. […] Cell lysis and one-step qPCR. […] Real-time PCR amplification was detected using the Bio-Rad CFX384 Touch PCR system. […] Real-time data were analysed using the CFX Maestro software (Bio-Rad) and obtained expression values were converted to percentage Gli1 inhibition by normalising to the average Gli1 expression of mSHh-treated control samples.
MEASURE_NAME: Mouse D473H % Inh (%)

chemical_structure=CC(C)c1noc(-c2ccc(NC(=O)c3cccc(CN4CCS(=O)(=O)CC4)c3)cc2)n1 measure_name="Mouse D473H % Inh" units=% experimental_result=98.1
chemical_structure=O=C(Nc1ccc(-c2nc(-c3ccc(C(F)(F)F)s3)n[nH]2)cc1)c1cccc(CN2CCS(=O)(=O)CC2)c1 measure_name="Mouse D473H % Inh" units=% experimental_result=93.9
chemical_structure=CN(C)c1nnc(-c2ccc(NC(=O)c3cccc(CN4CCS(=O)(=O)CC4)c3)cc2)o1 measure_name="Mouse D473H % Inh" units=% experimental_result=99.1
chemical_structure=CC(C)(C)c1n[nH]c(-c2ccc(NC(=O)c3cccc(CN4CCS(=O)(=O)CC4)c3)cc2)n1 measure_name="Mouse D473H % Inh" units=% experimental_result=91.0
chemical_structure=COc1cccc(Cc2n[nH]c(-c3ccc(NC(=O)c4cccc(CN5CCS(=O)(=O)CC5)c4)cc3)n2)c1 measure_name="Mouse D473H % Inh" units=% experimental_result=98.2
chemical_structure=O=C(Nc1ccc(-c2nc(C3CCCC3)n[nH]2)cc1)c1cccc(CN2CCS(=O)(=O)CC2)c1 measure_name="Mouse D473H % Inh" units=% experimental_result=96.7
chemical_structure=Cl.O=C(Nc1ccc(-c2nc(C3CCC3)n[nH]2)cc1)c1cccc(CN2CCS(=O)(=O)CC2)c1 measure_name="Mouse D473H % Inh" units=% experimental_result=97.7
